B1: TPR t1 (parent)
chain: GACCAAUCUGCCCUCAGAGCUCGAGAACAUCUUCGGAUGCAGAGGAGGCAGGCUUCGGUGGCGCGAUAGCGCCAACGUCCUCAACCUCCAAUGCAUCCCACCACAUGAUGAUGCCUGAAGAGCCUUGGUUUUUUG

variants of: B1; assay: polymerase ribozyme fitness, log enrichment relative to wild type (log ratio); higher = more active; in vitro selection for triplet polymerase activity
Measured Property: polymerase ribozyme fitness (log ratio)

- Macromolecule Sequence: "GACCAAUCUGCCCUCAGAGCUCGAGAACAUCUUCGGAUGCAUAGGAGGCAGGCUUCGGUGGCGCGAUAGCGCCAACGUCCUCAACCUCCAAUGCAUCCCACCACAUGAUUAUGCCUGAAGAGCCUUGGUUUUUUG [G42U G110U]"
  Measured Property: "polymerase ribozyme fitness (log ratio)"
  Value Measured: -3.71
- Macromolecule Sequence: "GACCGAUCUGCCCUCAGAGCUCGAGAACAUCUUCGGAUGCAGAGGAGGCAGGCUUCGGUGGCGUGAUAGCGCCAACGUCCUCAAUCUCCAAUGCAUCCCACCACAUGAUGAUGCCUGAAGAGCCUUGGUUUUUUG [A5G C64U C85U]"
  Measured Property: "polymerase ribozyme fitness (log ratio)"
  Value Measured: -1.64
- Macromolecule Sequence: "GAUCAAUCAGCCCUCAGAGCUCGAGAGCAUCUUCGGAUGCAUAGGAGGCAGGCUUCGGUGGCGCGAUAGCGCCAACGUCCUCAACCUCCAAUGCAUCCCUCCACAUGAUGAUGCCUGAAGAGCCUUGGUUUUAUG [C3U U9A A27G G42U A100U U133A]"
  Measured Property: "polymerase ribozyme fitness (log ratio)"
  Value Measured: -3.45
- Macromolecule Sequence: "GACCAAUCUGCCCUCAGAGCUCGAGAACAUCUUCGGAUGCAGAGGAGGCAGGCUUCGGUGGCGCGAUAGCGCCAACGUCCUCAACCUCCAAUGCAUCCCACCACAUGAUGAUGCCUGAAGAGCCUUAGGUUUUUG [G127A U129G]"
  Measured Property: "polymerase ribozyme fitness (log ratio)"
  Value Measured: -1.62
- Macromolecule Sequence: "GACCAAUAUGCCCUCAGAGCUCGAGAACAUCUUCGGAUGCAGAGGAGGCAGGCUUCGGUGGCGCGAUAGCGCCAACGCCCUCAACCUCCAAUGCAUCCCACCACAUGAUGAUGCCUGAAGAGCCUUGGUUUUUUG [C8A U78C]"
  Measured Property: "polymerase ribozyme fitness (log ratio)"
  Value Measured: 0.0167
- Macromolecule Sequence: "GACCAAUCUGCCCUCAGAGCUCGAGAACAUCUUCGGAUGCAGAGGAGGGAGGCUUCGGUGGCGCGAUAGCGCCAACGUCUUCAACCUCCAAUGCAUCCCACCACAUGAUGAUGCCUGAAGAGCCUUGGUUUUUUG [C49G C80U]"
  Measured Property: "polymerase ribozyme fitness (log ratio)"
  Value Measured: -3.42
- Macromolecule Sequence: "GAUCAAUCUGCCCUCAGAGCUCGAGAACAUCUUCGGAUGCAGAGGAGGCAGGCUUCGGUGGCGCGAUAGCGCCAACGUACUCAACCUCCAAUGCAUCCCACCACAUGAUGAUUCCUGAAGAGCCUUGGUUUUUUG [C3U C79A G113U]"
  Measured Property: "polymerase ribozyme fitness (log ratio)"
  Value Measured: -5.54
- Macromolecule Sequence: "GACCAAUCUGCCCUCAUAGCUCGAGAACAUCUUCGGAUGCAGAGGAGGCAGGCUUCGGUGGCGCGAUAGCGCCAACGACCUCAACCUCCAAUGCAUCCCACCACAUGAUGAUGCCUGAAGAGCCUUGGUUUUUUG [G17U U78A]"
  Measured Property: "polymerase ribozyme fitness (log ratio)"
  Value Measured: -2.93
- Macromolecule Sequence: "GACCAAUCUGCCCUCAGAGCUCGAGAACAUCUUCGGAUGCAGAGGAGGCAGUCUUCGGAGGCGCGAUAGCGCCAACGUCCUCAACCUCCAAUGCAUCCCACCACAUGAUGAUCCCUGAGGAGCCUUGGUUUUUUG [G52U U59A G113C A119G]"
  Measured Property: "polymerase ribozyme fitness (log ratio)"
  Value Measured: -1.67
- Macromolecule Sequence: "GACCAAUCUGCCCUCAGAGCUCGAGAAUAUCUUCGGAUGCAGAGGAGGAAGGCUUCGGUGGCGCGAUAGCGCCAACGUCCUCAACCUCCAAUGCAUCCCACCACAUGAUGAUCCCUGAAGAGCCUUGGUUUUUUG [C28U C49A G113C]"
  Measured Property: "polymerase ribozyme fitness (log ratio)"
  Value Measured: -3.97
- Macromolecule Sequence: "GACCAAUCUGCUCUCAGAGCUCGAGAACAUCUUCGGAUGCAGAGGAGGCAGGCUUCGGUGGCACGAUAGCGCCAACGUCCUCAACCUCCAAUGCAUCCCACCACAUGAUGAUGCCUGAAGAGCGUUUGUUUUUUG [C12U G63A C124G G127U]"
  Measured Property: "polymerase ribozyme fitness (log ratio)"
  Value Measured: 1.79
- Macromolecule Sequence: "GACCAAUCUGCCCUCAGAGCUCGAGAACAUCUUCGGAUACAGAGCAGGCAGGCUUCGGUUGCGCGAUAUCGCCAACGUCCUUAACCUCCAAUGCAUCCCACCACAUGAUGAUGCCUGAAGAGCCUUGGUUUUUUG [G39A G45C G60U G69U C82U]"
  Measured Property: "polymerase ribozyme fitness (log ratio)"
  Value Measured: -5.66
- Macromolecule Sequence: "GACCAAUCUGCCCUCAGAGCUCGAGAACAUCUUCGGAUGCAGAGGAGGCAGACUUCGGUGACGCGAUAGCGCCAACGUCCUCAACCUCCAAUGCAUCCCACCACAUGAUGAUGCCUGAAGAGCCUUGGUUUAUUG [G52A G61A U132A]"
  Measured Property: "polymerase ribozyme fitness (log ratio)"
  Value Measured: -0.488
- Macromolecule Sequence: "GACCAAUCUGCCCUCAGAGCUCGAGAACAUCUUCGGAUGCAGAGGAGGCAGGCUUCGGUGGCGCGAUAGCGCCAACGACCUGAACCUCCAAUGCAUCCCACCACAUGAUGAUGCAUGAAGAGCCUUGGUAUUUUG [U78A C82G C115A U130A]"
  Measured Property: "polymerase ribozyme fitness (log ratio)"
  Value Measured: -0.912
- Macromolecule Sequence: "GGCCAAUCUGCCCUCAGAGCUCGAGAACAUCUUCGGAUGCAGAGGAGGCAGGCUUCGGUGGCGCGAUAGCGCCAACGUCCUCAACCUGCAAUGCAUCCCACCACAUGAUGAUCCCUGAAGAGCCUUGAGUUUUUG [A2G C88G G113C G128A U129G]"
  Measured Property: "polymerase ribozyme fitness (log ratio)"
  Value Measured: -5.6
- Macromolecule Sequence: "GACCAGUCUGCCCUCAGAGCUCGAGAACAUCUUCGGAUGCAGAGGAGGCAGGCUUCGGUGGCGUGAUAGCGCCAACGUCCUCAACCUCCAAUGCAUCCCACCACAUGAUGAUGCCUGAAGAGCCUUGGUUUUUUG [A6G C64U]"
  Measured Property: "polymerase ribozyme fitness (log ratio)"
  Value Measured: 0.116
- Macromolecule Sequence: "GACCAAUCUGCCCUCAGAGCUCGAGAACAUCUUCGGAUGCAGAGGAGGCAGGGUUCGGUGGCGCGAUAGCGCCAACGUCCUCAACCUCCAAUGCAUCCCACCACAUGAUGAUGCCUGAAGAGCCUUUGUUUUUUG [C53G G127U]"
  Measured Property: "polymerase ribozyme fitness (log ratio)"
  Value Measured: -1.46
- Macromolecule Sequence: "GACCAAACUGCCCUCAGAGCUCGAGAACAUCUUCGGAUGCAGAGGAGGCUGGCUUCGGUGGCGCGAUAGCGCCAACAUCCUCAACCUCCAAUGCAUCCCACCACAUGAUGAUGCCUGAAGAGCCUUGGUUUUUUG [U7A A50U G77A]"
  Measured Property: "polymerase ribozyme fitness (log ratio)"
  Value Measured: -1
- Macromolecule Sequence: "GACCAAUCUGCCCUCAGAGCUCGAGAACAUCUUCGGAUGCAGAGGAGGCAGGCUUCGGCGGCGCGAUAGCGCCAACGUCCUCAACCUCCAAUGCAUCCCACCACAUGAUGAUGCCUGAGGAGCCUUGGUUUUUUG [U59C A119G]"
  Measured Property: "polymerase ribozyme fitness (log ratio)"
  Value Measured: 0.816
- Macromolecule Sequence: "GACCAAUCUGCCCUCAGAGCUCGAGAACAUCUUCGGAUGCAGAGGAGGCAGGCUUCGGUGCCGCGAUAGCGCCAACGUCCUCAACCUCCAAUGCAUCCCACCACAUGAUGAUGCCUGAAGAGCCUUGAUUUUUUG [G61C G128A]"
  Measured Property: "polymerase ribozyme fitness (log ratio)"
  Value Measured: -3.41
- Macromolecule Sequence: "GACCAAUCUGCCCUCAGAGCUCGAGAACAUCUUGGGAUGCAGAGGAGGCAUGAUUCGGUGGCGCGAUAUCGCCAACGUCCUCAACCUCCAAUGCAUCCCACCACAUGAUGAUGCCUGAAUAGCCUUGGUUUUUUG [C34G G51U C53A G69U G120U]"
  Measured Property: "polymerase ribozyme fitness (log ratio)"
  Value Measured: -7.39
- Macromolecule Sequence: "GACCAAUCUGCCCUCAGAGCUCGAGAACAUCUUCGGAUGCAGAGGAGGCAGGCUUCGGUGGCGCGAUAGCGCCAACUUCCUCAACCUCCAAUGCAUCCCAGCACAUGAUGAUGCCUGAAGAGCCUUAGUUUUUUG [G77U C101G G127A]"
  Measured Property: "polymerase ribozyme fitness (log ratio)"
  Value Measured: -2.44

These data points were gathered from the RNAGym collection of RNA variant scans (doi:10.1073/pnas.2313332121).
